Cited source for all entries: ChEMBL document CHEMBL1138938

Quick reference: bioavailability of the listed items.
experimental protocol: Oral bioavailability in rat
Assay type: ADME, organism-based
run parameters: in vivo

COc1ccccc1CCNCc1cccnc1N1CCN(C(=O)[C@@H](Cc2ccc(Cl)cc2Cl)NC(=O)CCN)CC1	15%

Returns the measured bioavailability for the input compound. Input: COc1ccccc1CCNCc1cccnc1N1CCN(C(=O)[C@@H](Cc2ccc(Cl)cc2Cl)NC(C)=O)CC1
0%

---

Reported log10 of Ki for target or system Melanocortin receptor 4 (Homo sapiens), by entry.
Scale type: logarithmic (base 10). Underlying Ki unit: nM.

Before answering, review these 5 worked examples.
CC(C)(CO)NCc1cccnc1N1CCN(C(=O)[C@@H](Cc2ccc(Cl)cc2Cl)NC(=O)CCN)CC1	2.68
COc1ccccc1CCNCc1cccnc1N1CCN(C(=O)[C@@H](Cc2ccc(Cl)cc2Cl)NC(=O)CCN)CC1	0.83
NCCC(=O)N[C@H](Cc1ccc(Cl)cc1Cl)C(=O)N1CCN(c2ncccc2CNCCc2cccs2)CC1	1.18
NCCC(=O)N[C@H](Cc1ccc(Cl)cc1Cl)C(=O)N1CCN(c2ncccc2CNC(=O)NCc2ccccc2F)CC1	3.00
COc1ccccc1NC(=O)NCc1cccnc1N1CCN(C(=O)[C@@H](Cc2ccc(Cl)cc2Cl)NC(=O)CCN)CC1	3.11

Form entry - test system: Melanocortin receptor 4 (Homo sapiens); read-out: log10 of Ki; compound: COCC(=O)NCc1cccnc1N1CCN(C(=O)[C@@H](Cc2ccc(Cl)cc2Cl)NC(=O)CCN)CC1
Sequence (P32245 whole entry): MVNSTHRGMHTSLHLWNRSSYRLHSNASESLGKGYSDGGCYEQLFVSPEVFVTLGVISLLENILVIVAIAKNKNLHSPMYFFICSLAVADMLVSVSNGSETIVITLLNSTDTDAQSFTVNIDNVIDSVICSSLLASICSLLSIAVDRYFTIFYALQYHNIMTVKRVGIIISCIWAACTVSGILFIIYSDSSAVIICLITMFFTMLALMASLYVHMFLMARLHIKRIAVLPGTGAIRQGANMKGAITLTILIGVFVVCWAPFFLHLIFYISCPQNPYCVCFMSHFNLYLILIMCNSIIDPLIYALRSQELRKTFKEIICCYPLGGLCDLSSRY
3.45
